SYSTEM NAME: wild-type FLT3 receptor (Homo sapiens)
Sequence (P36888 27-993): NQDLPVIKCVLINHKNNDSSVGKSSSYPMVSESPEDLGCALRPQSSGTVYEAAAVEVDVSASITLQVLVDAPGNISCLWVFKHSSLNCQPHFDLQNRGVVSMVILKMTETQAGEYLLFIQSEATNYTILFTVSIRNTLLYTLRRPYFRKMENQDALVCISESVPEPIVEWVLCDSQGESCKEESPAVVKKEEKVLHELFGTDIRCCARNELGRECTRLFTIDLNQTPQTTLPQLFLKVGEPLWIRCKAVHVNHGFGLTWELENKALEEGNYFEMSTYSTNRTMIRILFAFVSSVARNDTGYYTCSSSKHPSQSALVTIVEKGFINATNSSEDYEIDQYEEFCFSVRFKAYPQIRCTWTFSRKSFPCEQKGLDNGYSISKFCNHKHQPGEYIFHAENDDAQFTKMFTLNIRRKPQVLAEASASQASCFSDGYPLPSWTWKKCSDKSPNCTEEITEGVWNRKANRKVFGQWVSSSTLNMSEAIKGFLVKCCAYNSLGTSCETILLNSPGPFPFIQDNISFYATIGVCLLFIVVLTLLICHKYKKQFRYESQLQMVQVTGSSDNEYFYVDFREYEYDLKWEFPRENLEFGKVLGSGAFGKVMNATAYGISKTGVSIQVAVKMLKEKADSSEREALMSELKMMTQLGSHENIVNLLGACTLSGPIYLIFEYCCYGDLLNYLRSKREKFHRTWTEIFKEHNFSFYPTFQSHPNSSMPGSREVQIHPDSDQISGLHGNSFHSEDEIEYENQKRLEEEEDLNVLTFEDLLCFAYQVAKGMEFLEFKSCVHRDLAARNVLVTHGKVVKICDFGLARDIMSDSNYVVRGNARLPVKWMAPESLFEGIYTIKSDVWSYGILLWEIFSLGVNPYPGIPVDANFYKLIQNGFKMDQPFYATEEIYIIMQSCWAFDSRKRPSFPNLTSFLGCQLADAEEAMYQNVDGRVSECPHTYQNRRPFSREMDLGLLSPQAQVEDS
TEST DETAILS: Cell-based FLT3 receptor ELISA (FLT ligand-induced phosphorylation in Baf3 FLT3 cells)
TEST SETTINGS: 100 ng/mL Flt ligand, uncertainty ±20%
REPORTED METRIC: IC50 (nM)

a: COc1cc2ncnc(C3CCN(C(=O)Nc4ccc(C5CCCCC5)cc4)CC3)c2cc1OC
b: COc1cc2ncnc(C3CCN(C(=O)Nc4ccc(OC(C)C)nc4)CC3)c2cc1OC
c: CN1CCN(c2ccc3c(C4CCN(C(=O)Nc5ccc(N6CCCC6)cc5)CC4)ncnc3c2)CC1
d: O=C1CN(c2ccc3c(C4CCN(C(=O)Nc5ccc(N6CCCC6)cc5)CC4)ncnc3c2)CCN1
QUERY: # ascending order, key=IC50 Reply with the item labels sorted in the order that was asked for.
RESULT: a, c, b, d
(a: 2 nM, c: 6 nM, b: 10 nM, d: 31 nM)

###

SYSTEM NAME: isolated kinase domain of the human FLT3 receptor (a.a. 571-993) (Homo sapiens)
Construct: human FLT3 receptor (a.a. 571-993)
Sequence (P36888 571-993): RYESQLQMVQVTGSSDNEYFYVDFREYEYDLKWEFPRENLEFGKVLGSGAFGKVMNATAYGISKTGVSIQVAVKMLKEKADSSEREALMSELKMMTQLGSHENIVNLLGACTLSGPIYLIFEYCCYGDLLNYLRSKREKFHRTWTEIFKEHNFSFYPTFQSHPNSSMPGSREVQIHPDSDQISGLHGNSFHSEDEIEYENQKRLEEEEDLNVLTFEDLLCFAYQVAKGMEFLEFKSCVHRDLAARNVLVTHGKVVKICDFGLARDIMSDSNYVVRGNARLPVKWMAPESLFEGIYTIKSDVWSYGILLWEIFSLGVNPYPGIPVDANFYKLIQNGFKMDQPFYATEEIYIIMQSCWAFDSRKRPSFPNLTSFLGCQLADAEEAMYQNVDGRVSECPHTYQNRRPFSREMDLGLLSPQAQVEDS
TEST DETAILS: FLT3 fluorescence polarization kinase assay
TEST SETTINGS: 150 uM ATP; uncertainty ±10%
REPORTED METRIC: IC50 (nM)

In [3]: df
Out[3]:
                           smiles_structure  unit_label  recorded_measurement
0  CN1CCN(CCCOc2cc3ncnc(C4CCN(C(=O)Nc5ccc(N6CCOCC6)cc5)CC4)c3cc2F)CC1          nM                    63
1  COc1cc2c(C3CCN(C(=O)Nc4ccc(N5CCOCC5)cc4)CC3)ncnc2cc1OCCCN1CCN(C)CC1          nM                    29
2  COCCN1CCN(c2ccc3c(C4CCN(C(=O)Nc5ccc(N6CCCC6)cc5)CC4)ncnc3c2)CC1          nM                    93
3  CC(=O)N1CCN(CCCOc2ccc3c(C4CCN(C(=O)Nc5ccc(N6CCOCC6)cc5)CC4)ncnc3c2)CC1          nM                    94
4  O=C(Nc1ccc(N2CCCC2)cc1)N1CCC(c2ncnc3cc(N4CCC4)ccc23)CC1          nM                     1

I: COCCCOc1ccc2c(C3CCN(C(=O)Nc4ccc(N5CCOCC5)cc4)CC3)ncnc2c1
II: COc1cc2ncnc(C3CCN(C(=O)Nc4ccc(NC(C)=O)cc4)CC3)c2cc1OC
III: O=C(Nc1ccc(N2CCCC2)cc1)N1CCC(c2ncnc3cc(N4CCCC4)ccc23)CC1
IV: COc1cc2ncnc(C3CCN(C(=O)Nc4ccc(C)cc4)CC3)c2cc1OC
QUERY: // smallest IC50 at index 0, largest at the end Return the labels ranked in the requested order, please.
RESULT: III, I, IV, II

a: O=C(Nc1ccc(N2CCOCC2)cc1)N1CCC(c2ncnc3cc(N4CCC(F)CC4)ccc23)CC1
b: O=C(Nc1ccc(N2CCCC2)cc1)N1CCC(c2ncnc3cc(N4CC[C@H](O)C4)ccc23)CC1
c: CN(C)CC(=O)N1CCN(c2ccc3c(C4CCN(C(=O)Nc5ccc(N6CCOCC6)cc5)CC4)ncnc3c2)CC1
d: O=C(Nc1ccc(N2CCCC2)cc1)N1CCC(c2ncnc3cc(N4CCN(c5ccccn5)CC4)ccc23)CC1
QUERY: Hey, quick one: sort these by IC50, largest value first please. Quick reminder: the answer is the labels in the order asked.
RESULT: a, c, d, b
(a: 291 nM, c: 13 nM, d: 2 nM, b: 1 nM)

1: COc1cc2ncnc(C3CCN(C(=O)Nc4ccc(-c5ccc(Cl)nc5)cc4)CC3)c2cc1OC
2: O=C(Nc1ccc(N2CCCC2)cc1)N1CCC(c2ncnc3cc(OCCCN4CCC[C@H]4CO)ccc23)CC1
QUERY: Select the item with the higher value of IC50 from the options 1 and 2 listed. Label of pick, please.
RESULT: 1
